# procedure.text: melting temperature; fluorescence melt of hairpins on a sequencing array, two-state fit, raised by 9.35 °C to match UV melts
# condition.notes: sodium 0.088 M
Entries and their Tm values follow.
measured.attribute: Tm (°C)

INSERT INTO assay_data (primary_sequence, measured_attribute, result) VALUES
  ('GTCGGCGAAAGCCAGGAC ((((((....)))..)))', 'Tm', 49.9),
  ('GCGAAACCTCGC ((((....))))', 'Tm', 49.5),
  ('CGCGGAAAAACAACCGCG ((..............))', 'Tm', 49.8),
  ('GTGCCCGGAAACGGACAC (((.(((....))).)))', 'Tm', 53.8),
  ('GTATTTGAAAAAATAC ((((((....))))))', 'Tm', 38.1),
  ('GGTACCGAAAGGTTTACC ((((((....)))..)))', 'Tm', 37.1),
  ('GTGAATCGAAAGATGCAC (((.(((....))).)))', 'Tm', 50.3);

###

Reported Tm values for a set of sequences
# procedure.text: melting temperature; fluorescence melt of hairpins on a sequencing array, two-state fit, raised by 9.35 °C to match UV melts
# condition.notes: sodium 0.088 M
measured.attribute: Tm (°C)

INSERT INTO measurements (primary_sequence, result) VALUES
  ('GATCATAGGTATGATC ((((((....))))))', 49.1),
  ('CGACCGGAAACGGATCG ((((((....))).)))', 48.5),
  ('GCCACGCGAAAGCTTCGC ((.(.((....)).).))', 33.6),
  ('GATGGTGCGAAAGCAATC (((..(((....))))))', 28.7),
  ('GTCCTCGAAAGAGACGAC ((((((....)))..)))', 42),
  ('GTCGGCGGAAACACCGAC (((((.(....).)))))', 55.3),
  ('GTCAGCGAAAGCTCCGAC ((((((....)))..)))', 28.9),
  ('CGGACCGGAAACGGCCG (((.(((....))))))', 56),
  ('GCTACGCGAAAGCGCAGC (((.(((....))).)))', 55.7),
  ('GCATTGCGAAAGCCACGC ((.(.((....)).).))', 38.2),
  ('GTTCTCTCGAAAGAGAAC (((..(((....))))))', 51.1),
  ('GTCATTCGAAAGAACGAC (((.(((....))).)))', 41.1),
  ('GCCCTCGGAAACGAAGGC (((.(((....))).)))', 46.6),
  ('GCCAACCCGAAAGGGGGC (((..(((....))))))', 51.8),
  ('GATCTCCACGAGATC ((((((...))))))', 53.6),
  ('GATTCGCGAAAGCGCATC (((.(((....))).)))', 42.7),
  ('GCTCAGCGAAAGCTCAGC (((.(((....))).)))', 44.7),
  ('GGTAACCCGAAAGGGACC (((..(((....))))))', 36.5),
  ('GCTAACGAAAGTTAGAGC ((((((....)))..)))', 45.8),
  ('GGCGCCGAAAGGCAAGCC ((((((....)))..)))', 63.8),
  ('GCTTTCGAAAGAAGTAGC ((((((....)))..)))', 34),
  ('TTAGCGAAAGCTAA (((((....)))))', 51.2),
  ('GCTTGGCGAAAGCTTAGC (((..((....))..)))', 53.4),
  ('GTGAGCGAAAGCTCCCAC ((((((....)))..)))', 36.4),
  ('GTTCGCGGAAACGCGAGC (.(((((....))))).)', 59.2),
  ('GTCCATCGAAAGATCGAC (((.(((....))).)))', 35.5),
  ('GATCCAGCGGTGGATC ((((((....))))))', 50.8),
  ('GTCTTCGAAAGAATGGAC ((((((....)))..)))', 27.2),
  ('GCGTAAGTACGC ((((....))))', 52.9),
  ('GCGTCACGAAAGTGCGC (((.(((....))))))', 66.9),
  ('ATCATGAAAATGAT (((((....)))))', 38.5),
  ('GTCGACACGAAAGTGGAC (((..(((....))))))', 41.2),
  ('GTCTGCCGAAAGGCCGAC (((.(((....))).)))', 54.1),
  ('GAACCCGAAAGGGGTTC ((((((....))).)))', 61.1),
  ('GGGTTAGGAAACTAATCC ((.((((....)))).))', 42.7),
  ('GCCGGGCGAAAGCAAGGC (((..((....))..)))', 68.5),
  ('GATCCAGTTCTGGATC ((((((....))))))', 55.5),
  ('GGGCGAGGAAACTCGTCC ((.((((....)))).))', 58.2);

###

# procedure.text: melting temperature; fluorescence melt of hairpins on a sequencing array, two-state fit, raised by 9.35 °C to match UV melts
# condition.notes: sodium 0.088 M
measured.attribute: Tm (°C)

INSERT INTO assay_data (primary_sequence, result) VALUES
  ('CGCTCGGAAACGAGGCG ((((((....))).)))', 53.2),
  ('GTGCTAGCGAAAGCTCAC (((..(((....))))))', 42.1),
  ('GGCACCGAAAGGTCTGCC ((((((....)))..)))', 48.4),
  ('GAAGCCGGAAACGACTTC ((((.((....)).))))', 46);

###

# procedure.text: folding enthalpy; higher = less favourable; fluorescence melt of hairpins on a sequencing array, two-state fit
# condition.notes: sodium 0.088 M
Lab note: compare folding enthalpy against -30 kcal/mol. Equal or greater, write MET. Smaller, write NOT MET.

INSERT INTO measurements (primary_sequence, category) VALUES
  ('GCCGTGCGAAAGCTGGGC (((..((....))..)))', 'MET'),
  ('GCGCACGAAAGTGTTCGC ((((((....)))..)))', 'MET'),
  ('GTCTGATCGAAAGATGAC (((..(((....))))))', 'MET'),
  ('GTGGCAGCGAAAGCTCAC (((..(((....))))))', 'MET'),
  ('GATGAAGGAAACTTCATC (((((((....)))))))', 'NOT MET'),
  ('GATCGAGGCTTCGATC ((((((....))))))', 'NOT MET'),
  ('GCCCCGCGAAAGCTTGGC (((..((....))..)))', 'MET'),
  ('GTTAGACCGAAAGGTAAC (((..(((....))))))', 'MET'),
  ('GGCCCACGAAAGTGAGCC (((.(((....))).)))', 'NOT MET'),
  ('GTGGTACGAAAGTAACAC (((.(((....))).)))', 'NOT MET'),
  ('GATCCAGAGGTGGATC ((((((....))))))', 'MET'),
  ('GCAACGCCGAAAGGCTGC (((..(((....))))))', 'MET');

###

# procedure.text: melting temperature; fluorescence melt of hairpins on a sequencing array, two-state fit, raised by 9.35 °C to match UV melts
# condition.notes: sodium 0.088 M
Could you label it t if measured Tm is 40 °C or higher, and f otherwise?

INSERT INTO results (primary_sequence, category) VALUES
  ('GGTATCGAAAGATGAACC ((((((....)))..)))', 'f'),
  ('GCGTCGATACGC ((((....))))', 't'),
  ('GAGTTACGAAAGTACTC (((.(((....))))))', 't'),
  ('GATCTTTCGAAAGATC ((((((....))))))', 't'),
  ('GCGAGCGGAAACGCTCAC (.(((((....))))).)', 't'),
  ('GGTTACGAAAGTAGGACC ((((((....)))..)))', 'f'),
  ('GTTGAGGGAAACCTTGAC ((..(((....)))..))', 'f'),
  ('GCGTGAATACGC ((((....))))', 't'),
  ('GATCACGCCGTGATC ((((((...))))))', 't'),
  ('GGTGGCGGAAACGCTACC (((.(((....))).)))', 't'),
  ('GATCCCCAATGGGATC ((((((....))))))', 't'),
  ('GACCGCCGAAAGGCGTC (((.(((....))))))', 't'),
  ('GATCCACTATGGATC ((((((...))))))', 't'),
  ('GATGCGGGAAACCGTATC (((.(((....))).)))', 't'),
  ('GCTCACGAAAGTGCCAGC ((((((....)))..)))', 'f'),
  ('GTAACCCGAAAGGGCTAC (((.(((....))).)))', 't'),
  ('CGAGCCCGGAAACGGTCG (((..(((....))))))', 'f'),
  ('GTCATAGGAAACCATGAC (((((.(....).)))))', 'f');
